Below, each entry is listed alongside its reported pIC50.
- TESTED_SYSTEM: HPK1 (Homo sapiens (Human), UniProt Q92918)
- Sequence (Q92918 1-346 limits assumed): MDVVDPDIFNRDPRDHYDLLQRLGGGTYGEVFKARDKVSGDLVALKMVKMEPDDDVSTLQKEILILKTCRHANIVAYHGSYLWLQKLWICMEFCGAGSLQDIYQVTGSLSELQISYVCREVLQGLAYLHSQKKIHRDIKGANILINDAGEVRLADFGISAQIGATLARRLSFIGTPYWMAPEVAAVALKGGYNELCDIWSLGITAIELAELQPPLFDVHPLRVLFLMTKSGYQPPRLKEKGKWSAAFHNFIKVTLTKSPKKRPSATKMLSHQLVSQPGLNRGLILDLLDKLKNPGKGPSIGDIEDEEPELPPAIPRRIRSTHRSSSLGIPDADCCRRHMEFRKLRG
pIC50: −log10 of the molar value.

MOLECULE	pIC50
Cn1ncc2c(N3CC[C@@H](N)C3)c(NC(=O)c3ccc(=O)n(-c4c(F)cccc4F)n3)ccc21	> 7.00
COc1cccc(F)c1-n1nccc(C(=O)Nc2ccc3c(nc(C(F)(F)F)n3C)c2N2CC[C@H](N)C2)c1=O	> 7.00
N[C@H]1CN(c2c(NC(=O)c3ccc(=O)n(-c4c(F)cccc4F)n3)ccc3c2cnn3[C@H]2CCOC2)CC12CC2	> 7.00
Cn1c(C(C)(C)F)nc2c(N3CC[C@@H](N)C3)c(NC(=O)c3ccc(=O)n(-c4c(F)cccc4F)n3)cc(F)c21	> 7.00
CCn1ncc2c(N3CC[C@@H](N)C3)c(NC(=O)c3ccc(=O)n(-c4c(F)cccc4F)n3)cc(F)c21	> 7.00
CC(C)c1nc2c(N3CC[C@@H](NC(=O)CN)C3)c(NC(=O)c3ccc(=O)n(-c4c(F)cccc4F)n3)ccc2n1C	> 7.00
CC1(C)CN(c2c(NC(=O)c3ccc(=O)n(-c4c(F)cccc4F)n3)ccc3nn(C4CC4)cc23)C[C@@H]1N	> 7.00
Cc1nc2c(N3C[C@H]4C[C@@H]3CN4)c(NC(=O)c3ccc(=O)n(-c4c(F)cccc4F)n3)ccc2n1C	> 7.00
Cc1nc2c(N3CC(N)CC(F)(F)C3)c(NC(=O)c3ccc(=O)n(-c4c(F)cccc4F)n3)ccc2n1C (stereo not drawn)	> 7.00
CC(C)n1ncc2c(N3CC[C@H](N)C3)c(NC(=O)c3ccc(=O)n(-c4c(F)cccc4F)n3)ccc21	> 7.00
[2H]C([2H])([2H])C([2H])(n1ncc2c(N3C[C@H](N)C4(CC4)C3)c(NC(=O)c3ccc(=O)n(-c4c(F)cccc4F)n3)ccc21)C([2H])([2H])[2H]	> 7.00
Cn1cc2c(N3CCC(N)CC3)c(NC(=O)c3ccc(=O)n(-c4c(F)cccc4F)n3)ccc2n1	> 7.00
CC(C)n1cc2c(N3C[C@H](N)C(C)(C)C3)c(NC(=O)c3ccc(=O)n(-c4c(F)cccc4F)n3)ccc2n1	> 7.00
COc1cccc(F)c1-c1nccc(C(=O)Nc2ccc3c(nc(C)n3C)c2C2C[C@H]3C[C@@H]2CN3)c1F (stereo partly drawn)	> 7.00
CC(C)c1nc2c(N3CC[C@@H](NC(=O)CCN)C3)c(NC(=O)c3ccc(=O)n(-c4c(F)cccc4F)n3)ccc2n1C	> 7.00
COc1cccc(F)c1-c1cccc(C(=O)Nc2ccc3c(nc(C)n3C)c2N2CC[C@H](N)C2)[n+]1[O-]	6.00 to 7.00
CC(C)Cn1cc2c(N3CC[C@@H](N)C3)c(NC(=O)c3ccc(=O)n(-c4c(F)cccc4F)n3)ccc2n1	> 7.00
Cn1c(C2(C(F)(F)F)CC2)nc2c(N3C[C@H](N)C4(CC4)C3)c(NC(=O)c3ccc(=O)n(-c4c(F)cccc4F)n3)ccc21	> 7.00
CC(C)n1nc(Cl)c2c(N3CC[C@@H](N)C3)c(NC(=O)c3ccc(=O)n(-c4c(F)cccc4F)n3)cc(F)c21	> 7.00
CO[C@H]1CN(c2c(NC(=O)c3ccc(=O)n(-c4c(F)cccc4F)n3)ccc3c2cnn3C(C)C)C[C@H]1N	> 7.00
Cc1nc2c(N3C[C@@H](N)C[C@H]3CO)c(NC(=O)c3ccc(=O)n(-c4c(F)cccc4F)n3)ccc2n1C	6.00 to 7.00
C[C@@H]1CN(c2c(NC(=O)c3ccc(=O)n(-c4c(F)cccc4F)n3)ccc3nn(C45CCC(CC4)C5)cc23)C[C@@H]1N	> 7.00
CC[C@@]1(N)CCN(c2c(NC(=O)c3ccc(=O)n(-c4c(F)cccc4F)n3)ccc3c2nc(C(C)C)n3C)C1	> 7.00
COCCn1cc2c(N3CC[C@@H](N)C3)c(NC(=O)c3ccc(=O)n(-c4c(F)cccc4F)n3)ccc2n1	> 7.00
COc1ccc(Cl)c(F)c1-c1nccc(C(=O)Nc2cc(F)ccc2N2C[C@H]3C[C@@H]2CN3)c1F	6.00 to 7.00
CO[C@@H]1CN(c2c(NC(=O)c3ccc(=O)n(-c4c(F)cccc4F)n3)ccc3c2cnn3C(C)C)C[C@H]1N	> 7.00
CC[C@]1(N)CCN(c2c(NC(=O)c3ccc(=O)n(-c4c(F)cccc4F)n3)ccc3c2nc(C(C)C)n3C)C1	> 7.00
